Experiment: chemical genetic growth profiling, strain panel (AID 1159580);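 also: tested at 20 µM; growth read once vehicle control cultures reached saturation at 30 °C; 1 = growth at the plate median or of vehicle wells; lower values mean less growth of the strain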
Details: S. cerevisiae deletion strains, growth OD, locus YIL066C, strain RNR3, hits give low values
The whole screen tested about 5,500 compounds, of which about 2,000 (36%) were called active. Roughly 18% stayed inconclusive and do not appear here. The list shows a part of the results.

{"columns": ["COMPOUND", "normalized growth"],
 "data": [
  ["NCCCN", 0.995],
  ["COc1cc(C)c2c(=O)c3c(O)cc(O)cc3oc2c1", 0.986],
  ["COc1cc(O)c2c(=O)cc(-c3ccc(OC)c(-c4c(O)cc(O)c5c(=O)cc(-c6ccc(O)cc6)oc45)c3)oc2c1", 0.88],
  ["COc1ccc(-c2cc(=O)c3c(O)cc(O)cc3o2)cc1O", 0.987],
  ["COC(=O)C(N)CS (configuration not stated)", 0.975],
  ["CN(C)CC[C@H](c1ccc(Cl)cc1)c1ccccn1", 1.01],
  ["CC[C@H]1CN2CCC1C[C@@H]2[C@@H](O)c1ccnc2ccc(OC)cc12 (some centres not stated)", 1]
]}

---

Assay: chemical genetic growth profiling, strain panel (AID 1159580);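 also: tested at 20 µM; growth read once vehicle control cultures reached saturation at 30 °C; 1 = growth at the plate median or of vehicle wells; lower values mean less growth of the strain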
Details: S. cerevisiae deletion strains, growth OD, locus YMR307W, strain GAS1
About 2,000 (36%) of roughly 5,500 compounds were called active. Inconclusive results (about 18%) are left out. Cut-off read from the data, not from the text of the source: active = normalized growth mostly below about 0.91 (no sharp cut-off); inconclusive = no clear call, values can overlap the other calls; inactive = mostly above about 0.92. This is one part of the list.
Outcome codes: active, inactive

{"columns": ["COMPOUND", "CLASS LABEL"],
 "data": [
  ["COC(=O)c1cccnc1Sc1ccc(C)cc1", "inactive"],
  ["NC(=O)c1cc(N2CC2)c([N+](=O)[O-])cc1[N+](=O)[O-]", "inactive"],
  ["CCCc1nn(C)c2c(=O)[nH]c(-c3cc(S(=O)(=O)N4CCN(C)CC4)ccc3OCC)nc12", "inactive"],
  ["CNCCC(Oc1ccccc1C)c1ccccc1 (centres undefined)", "inactive"],
  ["Nc1ccc(S(=O)(=O)Nc2ncccn2)cc1", "inactive"],
  ["Nc1nc2c(ncn2COC(CO)CO)c(=O)[nH]1", "inactive"],
  ["CC1=CC(=O)C(C(C)C)=CC1=O", "active"],
  ["CC(=O)[C@@]1(O)CCC2C3C=C(Cl)C4=CC(=O)[C@@H]5CC5[C@]4(C)C3CC[C@@]21C (some centres undefined)", "inactive"],
  ["O=C(Nc1ccc(Cl)cc1)N1CCN(c2ncccc2C(F)(F)F)CC1", "inactive"],
  ["CCSc1ncccc1C(=O)N[C@@H](CCSC)C(=O)OC", "inactive"],
  ["C[C@@H]1CCC2[C@](C)(CO)[C@@H](O)CC[C@]2(C)[C@@]12CC[C@@](CO)(CCO)O2 (some centres undefined)", "inactive"],
  ["CC(C)(C)c1ccc(Oc2ncccc2NC(=O)c2ccccc2C(F)(F)F)cc1", "inactive"],
  ["CC(=O)N1CCN(c2ccc(OCC3CO[C@](Cn4ccnc4)(c4ccc(Cl)cc4Cl)O3)cc2)CC1 (some centres undefined)", "active"],
  ["COc1ccccc1N1CCN(C(=O)c2cccs2)CC1", "inactive"]
]}

---

Test: chemical genetic growth profiling, strain panel (AID 1159580);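 also: tested at 20 µM; growth read once vehicle control cultures reached saturation at 30 °C; 1 = growth at the plate median or of vehicle wells; lower values mean less growth of the strain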
Details: S. cerevisiae deletion strains, growth OD, locus YOR270C, strain vph1
In all, about 5,500 compounds went through this assay and about 2,000 (36%) were called active. Inconclusive results (about 18%) are left out. Rule as the data show it: active = normalized growth mostly below about 0.91 (no sharp cut-off); inconclusive = no clear call, values can overlap the other calls; inactive = mostly above about 0.92. Some of the results follow.
Classes used: active, inactive

{"columns": ["COMPOUND", "CLASS LABEL"],
 "data": [
  ["O=c1c2cc(O)c(O)cc2oc2cc(O)c(C3O[C@H](CO)[C@H](O)[C@@H](O)[C@H]3O)c(O)c12 (some centres not stated)", "inactive"],
  ["CN(C)C(=O)C(CCN1CCC(O)(c2ccc(Cl)cc2)CC1)(c1ccccc1)c1ccccc1", "inactive"],
  ["COC1CC(O[C@H]2CC[C@]3(C=O)C4CC[C@]5(C)C(C6=CC(=O)OC6)CC[C@]5(O)C4CC[C@]3(O)C2)OC(C)C1O (some centres not stated)", "inactive"],
  ["O=C(O)C1=CC(=C(c2ccc(O)c(C(=O)O)c2)c2ccc(O)c(C(=O)O)c2)C=CC1=O", "inactive"],
  ["CO[C@@H]1[C@@H](OC(N)=O)[C@@H](O)[C@H](Oc2ccc3c(O)c(NC(=O)c4ccc(O)c(CC=C(C)C)c4)c(=O)oc3c2C)OC1(C)C", "inactive"],
  ["CCC(=O)NCC[C@@H]1CCc2ccc3c(c21)CCO3", "active"],
  ["CO[C@H]1[C@@H](O)[C@@H](C)O[C@H](O[C@H]2CCC3(C)C4CCC5(C)[C@@H](C6=CC(=O)OC6)CC[C@]5(O)[C@@H]4CC[C@]3(O)C2)[C@@H]1O (some centres not stated)", "inactive"]
]}
